Source of measurements: paper PMC4756062

# Assay type: in vivo, human (breast cancer patients)
# measurement.conditions: plasma; tamoxifen + potent CYP2D6-inhibiting SSRI (paroxetine or fluoxetine); median (range); dose corrected to 20 mg tamoxifen
readout.name: Cmax (nM)
Use nM as the unit, but write only the number.

Entry under review: CC/C(=C(\c1ccccc1)c1ccc(OCCNC)cc1)c1ccccc1 [ND-Tam, N-desmethyltamoxifen] . Reported Cmax?
528

---

# Format: in vivo, human (breast cancer patients)
# measurement.conditions: female, human, plasma, C max, plasma; tamoxifen + potent CYP2D6-inhibiting SSRI (paroxetine or fluoxetine); median (range); dose corrected to 20 mg tamoxifen
Below, each of the compounds is paired with its reported Cmax value.
Kindly answer with a numeric value in nM, unit omitted.

CC/C(=C(\c1ccccc1)c1ccc(OCCN(C)C)cc1)c1ccccc1 [Tamoxifen, reference compound]    369
CC/C(=C(\c1ccc(O)cc1)c1ccc(OCCNC)cc1)c1ccccc1 [Endoxifen, 4-hydroxy-N-desmethyl-tamoxifen]    5.46

Switching to the query record.
Value lookup for Cmax; key = CC/C(=C(\c1ccc(O)cc1)c1ccc(OCCN(C)C)cc1)c1ccccc1 [4-OH-Tam, 4-hydroxytamoxifen]
3.46

---

# Format: in vivo, human (breast cancer patients)
# measurement.conditions: plasma, concentration before dosing; tamoxifen + potent CYP2D6-inhibiting SSRI (paroxetine or fluoxetine); median (range); 10 patients
Below is a list of entries, each paired with its recorded C trough value.

CC/C(=C(\c1ccc(O)cc1)c1ccc(OCCNC)cc1)c1ccccc1 [Endoxifen, 4-hydroxy-N-desmethyl-tamoxifen]    5.20 (3.48–10.6) nM
CC/C(=C(\c1ccccc1)c1ccc(OCCNC)cc1)c1ccccc1 [ND-Tam, N-desmethyltamoxifen]    446 (306–807) nM

Could you share which C trough value was measured for CC/C(=C(\c1ccc(O)cc1)c1ccc(OCCN(C)C)cc1)c1ccccc1 [4-OH-Tam, 4-hydroxytamoxifen] ?
2.47 (1.29–4.65) nM

# get_value(readout='C trough', item= CC/C(=C(\c1ccccc1)c1ccc(OCCN(C)C)cc1)c1ccccc1 [Tamoxifen, reference compound] )
278 (128–557) nM
